Values from the supplement of paper PMC9732359

Assay: protein stability index of a GFP-peptide fusion (yeast GPS) (PSI 1-4); higher = more stable; sorted into four equal gates, so the index is relative within each strain
Conditions: san1∆
QUANTITY_NAME: protein stability index

AFVEFGASVIAGGQRIV [SWP82]    2.02
PSTGFKFSLPFEQKGSQ [YLR335W/NUP2]    3.07
TPLFPIDRNSTILYLNV [IRR1]    2.93
SSLFLDGLEKAAFNGVT [FAS2]    2.02
DAVLKIFSFHQDSIFQR [SRB8]    3.04
LHPYVPSSKPQEQVYPD [SRB8]    3.08
NSLLLDSTPEEVSCKLL [YML103C/NUP188]    2.97
ARNVQVHQEPYVFNARP [RPS0A]    2.99

* * *

Experiment: protein stability index of a GFP-peptide fusion (yeast GPS) (PSI 1-4); higher = more stable; sorted into four equal gates, so the index is relative within each strain
Conditions: san1∆
QUANTITY_NAME: protein stability index

NTSLNINGWKFESLPLK [SWP82]    2.96
IAATGLNQINGLNNDFL [GRR1]    3
PTDDKTLKPTFSFTEPA [YOR098C/NUP1]    2.91
RDQGNDSLNDDLNKENK [YIL149C/MLP2]    3.01
EQTCVKLLDSGCENPAD [SRP72]    2.91
RLGDLGVIDDSFDVAIS [SMC4]    1.23
TMADAVRELGILCIFEG [SEC65]    2.62
KSSFVKESAVISKQKSK [SMC1]    2.26
NAISNTQDDFTTSVDVM [SRP54]    3.1
TLELSAQFRVPRYHSKN [SWP82]    2.49
VSFNDSQSMVTNKENNI [YIL149C/MLP2]    3.02
VLTGGYLDQHKRTRLES [SMC3]    1.19
LVLADAFDIELSEFGIK [YCS4]    2.9
APIKKIIERYIKSKADA [PRP8]    2.98
IAGTFNVGKPDQSIASG [YOR098C/NUP1]    2.96
NNPLLLIVDVKQQGVGL [RPN8]    1.87
SKEDTLRLCLDIVPYFL [RPN1]    1.58
GQLPQLPKLNLPKYQTI [SNF5]    2.57
LVSLFEDTNLAAIHAKR [HHT1]    2.56
NNIIAEGIEKMGVRTFS [FAS2]    2.23
RGRPPKARNGLDYVRTP [SNF2]    2.41
SDKPSLPSAVDGENDKK [YLR335W/NUP2]    3.37
APLNFNPIIENNVDNKY [SSN2]    2.79
RMLLNLCKSATTKMWPT [BRR2]    1.7
TVLETLLSDVNQNQRNV [SMC3]    3.01
KQFVVDVLHPNRANVSK [RPS24A]    2.96
VKSVNDPSQNRLTGSLL [RPC37]    3.04
RVADEDANLNDLPETGF [IRR1]    3.44
PYLLETYANVLIPCKYL [RPN7]    1.19
ELTKNPNSNVELAGGNA [SMC1]    3.32
HGMSVDPRHIQLLGDVM [RPO31]    2.85
LTKKKNEEINKKSLEED [SEM1]    2.77
AGKSLVSKSEPKFFLGE [QCR2]    3.08
FFAAIRFVLSDDYSNLK [SMC3]    2.56
NLLCYYNLRSLNLINAK [RPN3]    1.36
IRRLRVLRRLLAKYRDA [RPL19A]    1.34
SNDRVNPLIELTPIQKK [ITC1]    2.15
VTNSPLFQTIEKLINNS [ECM29]    2.76
AARHRARFRSIHILKVA [RPL20A]    1.22

* * *

Assay: protein stability index of a GFP-peptide fusion (yeast GPS) (PSI 1-4); higher = more stable; sorted into four equal gates, so the index is relative within each strain
Conditions: pdr5∆
Parameter protein stability index: see the listing below.
QUANTITY_NAME: protein stability index

ITARSAFVEFGASVIAG [SWP82]    2.53
PITASTSRVFAKIISKA [YML103C/NUP188]    3.02
KAEKAEIRKRRASSLKA [RPS6A]    3.48
KENKKRKNFKMGPLYQN [IRR1]    1.99
PGTTSTGNNNNIATQQN [GAL11]    2.69
SNLKISLVKYPELLDSL [SWI1]    2.69
QRFVGHKSDVMSVDIDK [ASC1]    3.06
TRSLKYGKLRNGMFCQV [RRP4]    1.11
GLSIHPTQITQYTQRLS [SRP68]    1.93
DVKLVLASNFDNFDYFN [MED1]    3.19
SIESKLEEHKNHLDELQ [SMC1]    2.86
VTTCVYLACKVEECPQY [SSN8]    2.05
ISLAVEGEPVNSPNYFV [COR1]    2.43
SILPTRDDLFVRNLQGI [NUT1]    2.19
DFKTDVDEPMTSAVELG [YJL039C/NUP192]    2.28
KNNNGDEKNKNNNEDNE [MED2]    3.17
AAVIMRCKIYFFYLRIS [PCI8]    1.35
AELKLAGEFGLKNKREI [RPS9B]    3.21
GRIPLHWSVSFQAHEIT [NAS6]    2.84
SYQPMYQRPMQVQGQQQ [SSN3]    1.71
KKFVSQIQKNVDLLQFP [POP3]    2.23
KVDSPDDPFMTKSGATT [GAL11]    2.63
TSVQEKELMLQSKKLIE [YIL149C/MLP2]    2.94
LIFIACNDEDKDLETLY [ECM29]    3.04
NSIWGSSLRKNASGNKR [ITC1]    2.12
TSLKKIKDEIDDPFTKI [SWI1]    3.24
RLTRLWIKNEQERQRQI [PRP8]    2.56
VWFSHPRRFGKGSRQCR [RPS29B]    3.21
KMDFSSKEGQYKAKIKE [YIL149C/MLP2]    3.27
LRLDGHTKSDERSELLR [SNF2]    3.18
SLNEKNALHTERLHELK [SMC1]    3.11
TRIAGVVYHPSNNELVR [RPS8A]    2.47
VSTETFEQPSQREEAKK [RPL27A]    2.73
AIRKAPHNSKSLGFLQQ [RPN3]    2.7
VIITDGTLLREDDNTPA [YDL088C/ASM4]    2.9
YCDKNFRENMSKEETVD [PRE3]    3.09
IPAAGNNRSVSMQTIAE [SRB5]    3.12
FSHPAHQQRMSRTAADI [YCG1]    2.15
DKIHARARGPMQVLTRQ [RPB2]    3.22
SHGNPVVDFLKRNGSTL [FAS1]    3.17

* * *

Parameter protein stability index: see the listing below.
Test: protein stability index of a GFP-peptide fusion (yeast GPS) (PSI 1-4); higher = more stable; sorted into four equal gates, so the index is relative within each strain
Details: doa10∆
QUANTITY_NAME: protein stability index

CFSINDDPVPTPPAIEH [SSN2]    2.42
GLGVNRRILAAAAAAAA [SSN3]    1.44
IYDFITLFSSIEPQVIN [ECM29]    1.61
RGNIKVMFATNRPNTLD [RPT1]    2.91
KNGVIPEESKGSFKYIT [SWP82]    3.03
EATREVFGISKTSSGSY [ITC1]    3.33

* * *

Test: protein stability index of a GFP-peptide fusion (yeast GPS) (PSI 1-4); higher = more stable; sorted into four equal gates, so the index is relative within each strain
Conditions: doa10∆
Parameter protein stability index: see the listing below.
QUANTITY_NAME: protein stability index

PVNSADGKEDVEKGTPL [SME1]    3.45
MKQYRDFLGVASTGSGK [PRP28]    2.77
IDEPIKSIMDGIHDGHI [FAS1]    1.97
VQVSKAGGLPMDALTLM [RRP45]    1.28
SNTIDELSTDIILKTRQ [SRB7]    2.96
KVSAREKSAYKFFHNGM [FAS2]    3.5
DTSNWELSDSWRAHDSS [YGL100W/SEH1]    3.29
TLVNKSTGLKSASDALK [RPS1A]    2.94
LRIVTHLAICLDIINPG [YDL116W/NUP84]    1.61
AIIYQRGKDGKLHVAAK [YGL100W/SEH1]    3.25
RNLNNLKQENAYLLIRR [RPB8]    3.14
TEDVRLAPELNQAIWKR [RPL31B]    2.67
GKHNLTIWCVCDSYLDA [BRR2]    2.04
SNNTAATADTTHLHEAL [NUT1]    2.37
TTPEKPEETPLEELAET [FAS2]    3.28
SELQRLSHENNVMLEKI [RPT5]    3
TKFFDDAKSTPLRLRLY [RPN9]    3.26
DIAGQRDDALVVETITS [RRP42]    3.1
EMDEKSYEKNEDHVEDH [LIN1]    3.3
SKRRITEELSITGEKLD [SMC1]    2.17
SGLFVDVKKRTYEAIDV [RPB2]    2.48
